Test system: Leishmania donovani
Test: Antiparasitic activity against Leishmania donovani LV9 […] amastigotes infected in mouse RAW264.7 cells incubated for 48 hrs by Sybr Green I dye based assay
Format: functional, cell-based
Conditions: LV9, RAW264.7, 48 h
measuredParameter: pIC50
Keep in mind that pIC50 stands for -log10 of concentration in molar terms.

Req: Record request: pIC50 value, item C/C=C1\C[C@H]2[C@@H]([C@@H]3OC[C@H]4[C@H]5C[C@@H]6N(CC[C@@]67c6ccccc6N3[C@@H]47)C[C@H]5CC)[C@@H]3Cc4c([nH]c5ccccc45)[C@H]2N3C1
Resp: 5.35

Req: Report pIC50 for CCC1=C(CC(=O)OC)[C@@](O)(c2nccc3c2[nH]c2ccccc23)OC1=O please.
Resp: 4.59

Req: Quick one: pIC50 for CCC1=C(CC(=O)OC)[C@@](OC)(c2nccc3c2[nH]c2ccccc23)OC1=O ?
Resp: 4.22

Req: Can you share its pIC50? I mean this molecule: CCCCCCCCCCCCCCCCOP(=O)([O-])OCC[N+](C)(C)C [MILTEFOSINE]
Resp: 5.28

New cases:
Req: Data request, read-out pIC50, for C/C=C1/C[n+]2ccc3c([nH]c4ccccc43)c2C[C@@H]1[C@@H](C(=O)OC)[C@@H]1OC[C@H]2[C@H]3C[C@@H]4N(CC[C@@]45c4ccccc4N1[C@@H]25)C[C@H]3CC
Resp: 4.24

Req: # input molecule: CC[C@@]12CCCN3C(=O)C=C(c4ccccc4NC(=O)CC1)[C@]32O ; wanted: its pIC50
Resp: 4.60
